The origin of these recorded values is PubChem BioAssay AID504832.

- PROTOCOL DETAILS: Primary qHTS for delayed death inhibitors of the malarial parasite plastid, 48 hour incubation
- TEST CONTEXT: P. falciparum luciferase growth in erythrocytes; series mostly up to 28.7 µM
In all, about 310,000 compounds went through this assay and about 18,000 (5.8%) were called active. About 22% were inconclusive and are not listed. Calls come from the whole dose curve; as a rule, active = well fitted inhibition curve with a large enough effect; inconclusive = small, poorly fitted or top-dose-only effect, or another doubt; inactive = no such curve, though single readings can be large or run the other way. This is one part of a sample in which actives are shown more often than they occur.
Entry note: the call must match one of TRUE = active, FALSE = inactive

# COMPOUND, DISCRETE LABEL
data = [
    ("COc1ccc(C(=O)NCC(=O)N/N=C/c2ccc([N+](=O)[O-])s2)cc1OC", "FALSE"),
]

Hello, I am checking results. What call was entered for "NS(=O)(=O)c1ccc(NC(=S)N2CCCC2)cc1" ?
FALSE

Hello, I am checking results. What call was entered for "COC(=O)c1ccc(NC(=O)CSc2nncn2-c2cccnc2)cc1" ?
FALSE

Hello, I am checking results. What call was entered for "COc1ccc(C(=O)NCC(=O)N/N=C/c2ccc([N+](=O)[O-])o2)cc1OC" ?
TRUE

Hello, I am checking results. What call was entered for "CC(C)N(Cc1nnc(-c2ccccc2Br)o1)C(=O)c1cc(Cl)nc2ccccc12" ?
TRUE

Hello, I am checking results. What call was entered for CCOC(=O)c1cccc(NC(=O)CN2C(=O)C3CC=CCC3C2=O)c1 (stereo unspecified) ?
FALSE

Hello, I am checking results. What call was entered for "O=C(CSc1ccc(-c2cccs2)nn1)Nc1ccccc1F" ?
FALSE

Hello, I am checking results. What call was entered for "O=C(CSc1nc2nccnc2c(=O)n1Cc1cccs1)Nc1ccccc1F" ?
TRUE

Hello, I am checking results. What call was entered for "COCCn1c(Cc2cccn2C)nnc1SCC(=O)Nc1nccs1" ?
FALSE

Hello, I am checking results. What call was entered for "Cn1cnnc1SCc1nnc(-c2ccccc2Br)o1" ?
FALSE

Hello, I am checking results. What call was entered for "CCOc1ccc(NC(=O)CSc2nc3ccccc3c(=O)n2Cc2cccs2)cc1" ?
FALSE
